Values compiled from ChEMBL document CHEMBL4680139.

test system: A549; experiment: Antiproliferative activity against human A549 cells assessed as inhibition of cell growth measured after 48 hrs by SRB assay; type: functional, cell-based; conditions: A549, 48 h
Answer each item with its documented IC50.
Dear colleague, please return just the value in µM, with no unit written.

Request: Field request: IC50 | item: COc1cc(COC(c2ccc(OC)c(OC)c2OC)c2cccc3ccccc23)cc(OC)c1 (centres undefined)
Result: 17.5

Request: GET /values?readout=IC50&item= COc1ccc(/C(=N/O)c2cccc3ccccc23)c(OC)c1OC
Result: 13.1

Request: Report IC50 for COc1ccc(C(c2ccccc2OCCN2CCCC2)c2cccc3ccccc23)c(OC)c1OC (centres undefined) please.
Result: 5.85

Request: IC50 lookup needed for COc1ccc(/C(=C/c2ccc(F)cc2)c2cccc3ccccc23)c(OC)c1OC , thanks.
Result: 18.6

Request: Item COc1ccc(C(c2ccc(OC(C)CN(C)C)cc2)c2cccc3ccccc23)c(OC)c1OC (centres undefined) has what recorded IC50?
Result: 11.4

Request: Bench note: what IC50 did COc1ccc(C(c2ccc(OCC(=O)O)cc2)c2cccc3ccccc23)c(OC)c1OC (centres undefined) show?
Result: 16.4

Request: What does the record list as IC50 for CCOC(=O)CO/N=C(/c1ccc(OC)c(OC)c1OC)c1cccc2ccccc12 ?
Result: 6.72

Request: Look up IC50: COc1cccc2c1C(=O)c1c(O)c3c(c(O)c1C2=O)C[C@@](O)(C(=O)CO)C[C@@H]3O[C@H]1C[C@H](N)[C@H](O)[C@H](C)O1
Result: 0.63

Request: Sample COc1ccc(C(c2ccc(OCCN(C)C)cc2)c2cccc3ccccc23)c(OC)c1OC (centres undefined) — what was its IC50?
Result: 10.2

----------
test system: THP-1; assay: Antiproliferative activity against human THP-1 cells assessed as inhibition of cell growth measured after 48 hrs by SRB assay; format: functional, cell-based; details: THP-1, 48 h
pIC50: −log10 of the molar value.
assay.endpoint: pIC50

Request: So what does the record say about pIC50 for COC(=O)c1ccc(COC(c2ccc(OC)c(OC)c2OC)c2cccc3ccccc23)cc1 (centres undefined) ?
Result: < 4.70

Request: # query: pIC50 of entry COc1ccc(C(c2ccccc2O)c2cccc3ccccc23)c(OC)c1OC (centres undefined)
Result: < 4.70

Request: Could you tell me which pIC50 is on file for COc1ccc(/C(=C\c2ccc(F)cc2)c2cccc3ccccc23)c(OC)c1OC ?
Result: 5.04

Request: Fill in: pIC50 of C=CCC(O)(c1ccc(OC)c(OC)c1OC)c1cccc2ccccc12 (centres undefined) is ___
Result: < 4.70

----------
test system: MDA-MB-231; assay: Antiproliferative activity against human MDA-MB-231 cells assessed as inhibition of cell growth measured after 48 hrs by SRB assay; format: functional, cell-based; settings: MDA-MB-231, 48 h
assay.endpoint: IC50 (µM)
Answer in µM, number only, no unit symbol.

Request: Form field: reported IC50 of COc1cccc2c1C(=O)c1c(O)c3c(c(O)c1C2=O)C[C@@](O)(C(=O)CO)C[C@@H]3O[C@H]1C[C@H](N)[C@H](O)[C@H](C)O1 [DOXORUBICIN]
Result: 5.12

----------
test system: A549; test: Antiproliferative activity against human A549 cells assessed as inhibition of cell growth measured after 48 hrs by SRB assay; format: functional, cell-based; conditions: A549, 48 h
pIC50: −log10 of the molar value.
Parameter threshold = 5. Response is true when pIC50 meets or exceeds it, else false.

Request: Would you say CCOC(=O)CCO/N=C(/c1ccc(OC)c(OC)c1OC)c1cccc2ccccc12 shows pIC50 at minimum 5?
Result: false

Request: Hi, just wondering whether COc1ccc(C(O)(Cc2ccc(C)cc2)c2cccc3ccccc23)c(OC)c1OC (stereo not given) shows pIC50 of 5 or higher.
Result: false

Request: Confirm if pIC50 reported for the compound CCOC(=O)C(C)C(O)(c1ccc(OC)c(OC)c1OC)c1cccc2ccccc12 (stereo not given) is 5 or above.
Result: true

Request: Form field: pIC50 at least 5? Entry: CCOC(=O)/C=C/CO/N=C(/c1ccc(OC)c(OC)c1OC)c1cccc2ccccc12
Result: false
